# measured.on: T1, recombinant human MASP1 active protease (amino acids 297-699, C-terminal His Tag) (human, UniProt P48740 297-699)
# T1 sequence: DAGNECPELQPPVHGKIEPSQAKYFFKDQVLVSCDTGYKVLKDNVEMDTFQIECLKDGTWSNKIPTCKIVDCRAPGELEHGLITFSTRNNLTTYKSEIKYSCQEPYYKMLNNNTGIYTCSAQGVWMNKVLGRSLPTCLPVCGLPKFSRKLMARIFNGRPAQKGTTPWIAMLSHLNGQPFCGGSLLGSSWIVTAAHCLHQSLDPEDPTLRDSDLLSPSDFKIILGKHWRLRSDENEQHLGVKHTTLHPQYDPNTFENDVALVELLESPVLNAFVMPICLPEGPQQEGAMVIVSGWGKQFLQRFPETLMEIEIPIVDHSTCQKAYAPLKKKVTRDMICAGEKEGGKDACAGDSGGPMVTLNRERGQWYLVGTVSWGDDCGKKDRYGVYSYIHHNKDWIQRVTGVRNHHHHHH
# protocol: cell-based or functional assay
Bridge positions count the residues as written; N and C are the ends. Square brackets hold non-standard residues; d marks the D form. Ends that are not written are not given here. tBuAla = CC(C)(C)C[C@H](N)C(=O)O; Pen = CC(C)(S)[C@H](N)C(=O)O; Pip = O=C(O)[C@@H]1CCCCN1; PEG2 = NCCOCCOCCC(=O)O
measurement.label: human MASP1 IC50

binder="[PEG2]AICSRS[tBuAla]PPI[Pen]IPD-NH2 (disulfide 4-12; N-terminus assumed; SMILES CC[C@H](C)[C@H](NC(=O)[C@H](C)NC(=O)CCOCCOCCN)C(=O)N[C@H]1CSSC(C)(C)[C@@H](C(=O)N[C@H](C(=O)N2CCC[C@H]2C(=O)N[C@@H](CC(=O)O)C(N)=O)[C@@H](C)CC)NC(=O)[C@H]([C@@H](C)CC)NC(=O)[C@@H]2CCCN2C(=O)[C@@H]2CCCN2C(=O)[C@H](CC(C)(C)C)NC(=O)[C@H](CO)NC(=O)[C@H](CCCNC(=N)N)NC(=O)[C@H](CO)NC1=O) [Example 320: (PEG1(10 atoms))-AIC+SRS-((tBu)A)-PPI-(Pen)+IPD-NH2]" measurement_label="human MASP1 IC50" reported_result="22 nM"
binder="GICSRSL[Pip]PICID-OH (disulfide 3-11; N-terminus assumed; SMILES CC[C@H](C)[C@H](NC(=O)CN)C(=O)N[C@H]1CSSC[C@@H](C(=O)N[C@H](C(=O)N[C@@H](CC(=O)O)C(=O)O)[C@@H](C)CC)NC(=O)[C@H]([C@@H](C)CC)NC(=O)[C@@H]2CCCN2C(=O)[C@@H]2CCCCN2C(=O)[C@H](CC(C)C)NC(=O)[C@H](CO)NC(=O)[C@H](CCCNC(=N)N)NC(=O)[C@H](CO)NC1=O) [Example 401: GIC+SRSL-(Pip)-PIC+ID-OH]" measurement_label="human MASP1 IC50" reported_result="56 nM"
